Kindly state MIC E. coli ATCC25922 for each of the entries shown.
# Tested on: Escherichia coli
# protocol.details: MIC, sole activity (no second agent)
# Format: cell-based
# conditions: in the absence of Rifampicin; strain ATCC25922
Where a name gives a salt, the structure may show the parent alone. Numbered stars: 1 amine (or outer) side, 2 acyl side, 3 side chain; on linkers, the order of the positions; unused ones are H or OH. Bridge positions count the residues as written; N and C are the ends. Square brackets hold non-standard residues; d marks the D form. Peptide text beside a SMILES is read from it. * marks the point of attachment. ξ: configuration not given here. NMeGABA = CN(CCCC(=O)[*:2])[*:1]; X18 = O=C([C@H]1CC[C@H](O)CC1)*; Thr(3ξ) = CC(O)[C@H](N)C(=O)O; Dab = NCC[C@H](N)C(=O)O; X23 = O=C(CCCN1CCOCC1)*; X1 = CCCCCCC(O)C(=O)*; X16 = CN(C)CCCC(=O)*; βAla = NCCC(=O)O
Numbers only, in micrograms/mL.

These solved cases illustrate the format of a correct answer.
compound	MIC E. coli ATCC25922 / micrograms/mL
CC(C)C[C@@H]1NC(=O)[C@@H](Cc2ccccc2)NC(=O)[C@H](CCN)NC(=O)[C@@H](NC(=O)[C@H](CCN)NC(=O)[C@@H](NC(=O)CCCN2CCOCC2)C(C)O)CCNC(=O)[C@H](C(C)O)NC(=O)[C@H](CCN)NC(=O)[C@H](CCN)NC1=O (stereo partly drawn) [Example 14, trifluoroacetate salt] (X23-[Thr(3ξ)][Dab][Dab][Dab][dF]L[Dab][Dab][Thr(3ξ)]; lactam 3-C)	4
CCCCCCC(O)C(=O)N[C@H](C(=O)N[C@@H](CCN)C(=O)N[C@H]1CCNC(=O)[C@H]([C@@H](C)O)NC(=O)[C@H](CCN)NC(=O)[C@H](CCN)NC(=O)[C@H](CC(C)C)NC(=O)[C@@H](Cc2ccccc2)NC(=O)[C@H](CCN)NC1=O)[C@@H](C)O (stereo partly drawn) [Example 1] (X1-T[Dab][Dab][Dab][dF]L[Dab][Dab]T; lactam 3-C)	2
CNCCCC(=O)N[C@H](C(=O)N[C@@H](CCN)C(=O)N[C@H]1CCNC(=O)[C@H](C(C)O)NC(=O)[C@H](CCN)NC(=O)[C@H](CCN)NC(=O)[C@H](CC(C)C)NC(=O)[C@@H](Cc2ccccc2)NC(=O)[C@H](CCN)NC1=O)C(C)O (stereo partly drawn) [Example 16] (NMeGABA-[Thr(3ξ)][Dab][Dab][Dab][dF]L[Dab][Dab][Thr(3ξ)]; lactam 3-C)	0.5
CC(C)C[C@@H]1NC(=O)[C@@H](Cc2ccccc2)NC(=O)[C@H](CCN)NC(=O)[C@@H](NC(=O)[C@H](CCN)NC(=O)[C@@H](NC(=O)[C@H]2CC[C@H](O)CC2)C(C)O)CCNC(=O)[C@H](C(C)O)NC(=O)[C@H](CCN)NC(=O)[C@H](CCN)NC1=O (stereo partly drawn) [Example 25] (X18-[Thr(3ξ)][Dab][Dab][Dab][dF]L[Dab][Dab][Thr(3ξ)]; lactam 3-C)	8
CC(C)C[C@@H]1NC(=O)[C@@H](Cc2ccccc2)NC(=O)[C@H](CCN)NC(=O)[C@@H](NC(=O)[C@H](CCN)NC(=O)[C@@H](NC(=O)CCN)C(C)O)CCNC(=O)[C@H](C(C)O)NC(=O)[C@H](CCN)NC(=O)[C@H](CCN)NC1=O (stereo partly drawn) [Example 3, 3-Aminopropanoyl polymyxin B nonapeptide] (H-[βAla][Thr(3ξ)][Dab][Dab][Dab][dF]L[Dab][Dab][Thr(3ξ)]; lactam 4-C)	2

# next compound below
Ask | Give reported MIC E. coli ATCC25922 value for CC(C)C[C@@H]1NC(=O)[C@@H](Cc2ccccc2)NC(=O)[C@H](CCN)NC(=O)[C@@H](NC(=O)[C@H](CCN)NC(=O)[C@@H](NC(=O)CCCN(C)C)C(C)O)CCNC(=O)[C@H](C(C)O)NC(=O)[C@H](CCN)NC(=O)[C@H](CCN)NC1=O (stereo partly drawn) [Example 11] (X16-[Thr(3ξ)][Dab][Dab][Dab][dF]L[Dab][Dab][Thr(3ξ)]; lactam 3-C)
Reply | 0.5

* * *

# Test system: Pseudomonas aeruginosa
# protocol.details: MIC, compound in combination with a second agent (broth microdilution)
# Assay type: cell-based
# conditions: 1:1 (wt:wt) combination with Rifampicin; MIC = total drug concentration; strain ATCC CRM-9027
Structures can show the parent of a compound that is named as a salt. Numbered stars: 1 amine (or outer) side, 2 acyl side, 3 side chain; on linkers, the order of the positions; unused ones are H or OH. Bridge positions count the residues as written; N and C are the ends. Square brackets hold non-standard residues; d marks the D form. Peptide text beside a SMILES is read from it. * marks the point of attachment. ξ: configuration not given here. Achc(trans-4) = O=C([C@H]1CC[C@H](N[*:1])CC1)[*:2]; ξHexahydromandeloyl = O=C(C(O)C1CCCCC1)*; ξβ3hPhg = O=C(CC(N[*:1])c1ccccc1)[*:2]; X6 = N[C@@H](CC(=O)*)c1ccc2ccccc2c1; ξβ3hGly(cHex) = NC(CC(=O)*)C1CCCCC1; NMeGABA = CN(CCCC(=O)[*:2])[*:1]; Thr(3ξ) = CC(O)[C@H](N)C(=O)O; NH(2-ClPh) = Clc1ccccc1N*; Dab = NCC[C@H](N)C(=O)O; X3 = O=C([C@H]1CCCNC1)*; Dap = NC[C@H](N)C(=O)O; CO = O=C([*:1])[*:2]; X4 = NC1CCCC1C(=O)*; Ahx = NCCCCCC(=O)O
outcome.measure: MIC P. aeruginosa ATCC CRM-9027 (micrograms/mL)
Give bare numbers, in micrograms/mL.

List the reported MIC P. aeruginosa ATCC CRM-9027 of each molecule below.
1. CC(C)C[C@@H]1NC(=O)[C@@H](CC(C)C)NC(=O)[C@H](CCN)NC(=O)[C@@H](NC(=O)[C@H](CCN)NC(=O)[C@@H](NC(=O)CC(N)C2CCCCC2)C(C)O)CCNC(=O)[C@H](C(C)O)NC(=O)[C@H](CCN)NC(=O)[C@H](CCN)NC1=O (stereo partly drawn) [Example 30, TFA salt] ({ξβ3hGly(cHex)}-[Thr(3ξ)][Dab][Dab][Dab][dL]L[Dab][Dab][Thr(3ξ)]; lactam 3-C)
2. CC(C)C[C@@H]1NC(=O)[C@@H](Cc2ccccc2)NC(=O)[C@H](CCN)NC(=O)[C@@H](NC(=O)[C@H](CN)NC(=O)[C@@H](NC(=O)C(O)C2CCCCC2)C(C)O)CCNC(=O)[C@H](C(C)O)NC(=O)[C@H](CCN)NC(=O)[C@H](CCN)NC1=O (some centres unmarked) [Example 45, TFA salt] (ξHexahydromandeloyl-[Thr(3ξ)][Dap][Dab][Dab][dF]L[Dab][Dab][Thr(3ξ)]; lactam 3-C)
3. CC(C)C[C@@H]1NC(=O)[C@@H](Cc2ccccc2)NC(=O)[C@H](CCN)NC(=O)[C@@H](NC(=O)[C@H](CCN)NC(=O)[C@@H](NC(=O)C[C@H](N)c2ccc3ccccc3c2)C(C)O)CCNC(=O)[C@H](C(C)O)NC(=O)[C@H](CCN)NC(=O)[C@H](CCN)NC1=O (some centres unmarked) [Example 38, trifluoroacetate salt] (X6-[Thr(3ξ)][Dab][Dab][Dab][dF]L[Dab][Dab][Thr(3ξ)]; lactam 3-C)
4. CC(C)C[C@@H]1NC(=O)[C@@H](Cc2ccccc2)NC(=O)[C@H](CCN)NC(=O)[C@@H](NC(=O)[C@H](CN)NC(=O)[C@@H](NC(=O)C2CCCC2N)C(C)O)CCNC(=O)[C@H](C(C)O)NC(=O)[C@H](CCN)NC(=O)[C@H](CCN)NC1=O (some centres unmarked) [Example 43, TFA salt] (X4-[Thr(3ξ)][Dap][Dab][Dab][dF]L[Dab][Dab][Thr(3ξ)]; lactam 3-C)
5. CC(C)C[C@@H]1NC(=O)[C@@H](Cc2ccccc2)NC(=O)[C@H](CCN)NC(=O)[C@@H](NC(=O)[C@H](CCN)NC(=O)[C@@H](NC(=O)[C@H](CCN)NC(=O)Nc2ccccc2Cl)C(C)O)CCNC(=O)[C@H](C(C)O)NC(=O)[C@H](CCN)NC(=O)[C@H](CCN)NC1=O (some centres unmarked) [Example C2, CB-182, 804 sulphate salt, reference compound] ({NH(2-ClPh)-CO}-[Dab][Thr(3ξ)][Dab][Dab][Dab][dF]L[Dab][Dab][Thr(3ξ)]; lactam 4-C)
6. CC(C)C[C@@H]1NC(=O)[C@@H](Cc2ccccc2)NC(=O)[C@H](CCN)NC(=O)[C@@H](NC(=O)[C@H](CCN)NC(=O)[C@@H](NC(=O)CCCCCN)C(C)O)CCNC(=O)[C@H](C(C)O)NC(=O)[C@H](CCN)NC(=O)[C@H](CCN)NC1=O (some centres unmarked) [Example 2, 6-Aminohexanoyl polymyxin B nonapeptide] (H-[Ahx][Thr(3ξ)][Dab][Dab][Dab][dF]L[Dab][Dab][Thr(3ξ)]; lactam 4-C)
7. CNCCCC(=O)N[C@H](C(=O)N[C@@H](CCN)C(=O)N[C@H]1CCNC(=O)[C@H](C(C)O)NC(=O)[C@H](CCN)NC(=O)[C@H](CCN)NC(=O)[C@H](CC(C)C)NC(=O)[C@@H](Cc2ccccc2)NC(=O)[C@H](CCN)NC1=O)C(C)O (some centres unmarked) [Example 16] (NMeGABA-[Thr(3ξ)][Dab][Dab][Dab][dF]L[Dab][Dab][Thr(3ξ)]; lactam 3-C)
8. CC(C)C[C@@H]1NC(=O)[C@@H](Cc2ccccc2)NC(=O)[C@H](CCN)NC(=O)[C@@H](NC(=O)[C@@H](CO)NC(=O)[C@@H](NC(=O)CC(N)C2CCCCC2)[C@@H](C)O)CCNC(=O)[C@H](C(C)O)NC(=O)[C@H](CCN)NC(=O)[C@H](CCN)NC1=O (stereo partly drawn) [Example 48, TFA salt] ({ξβ3hGly(cHex)}-T[dS][Dab][Dab][dF]L[Dab][Dab][Thr(3ξ)]; lactam 3-C)

Reply |
1. 0.125
2. 0.5
3. 0.5
4. 0.125
5. 0.5
6. 0.25
7. 0.125
8. 1

Below are some molecules; for each one, tell me its MIC P. aeruginosa ATCC CRM-9027.
1. CC(C)C[C@@H]1NC(=O)[C@@H](Cc2ccccc2)NC(=O)[C@H](CCN)NC(=O)[C@@H](NC(=O)[C@H](CCN)NC(=O)[C@@H](NC(=O)[C@H]2CC[C@H](N)CC2)[C@@H](C)O)CCNC(=O)[C@H]([C@@H](C)O)NC(=O)[C@H](CCN)NC(=O)[C@H](CCN)NC1=O [Example 17] (H-[Achc(trans-4)]T[Dab][Dab][Dab][dF]L[Dab][Dab]T; lactam 4-C)
2. CC(C)C[C@@H]1NC(=O)[C@@H](Cc2ccccc2)NC(=O)[C@H](CCN)NC(=O)[C@@H](NC(=O)[C@H](CCN)NC(=O)[C@@H](NC(=O)[C@H]2CCCNC2)[C@@H](C)O)CCNC(=O)[C@H]([C@@H](C)O)NC(=O)[C@H](CCN)NC(=O)[C@H](CCN)NC1=O [Example 37, trifluoroacetate salt] (X3-T[Dab][Dab][Dab][dF]L[Dab][Dab]T; lactam 3-C)
3. CC(C)C[C@@H]1NC(=O)[C@@H](Cc2ccccc2)NC(=O)[C@H](CCN)NC(=O)[C@@H](NC(=O)[C@H](CCN)NC(=O)[C@@H](NC(=O)CC(N)c2ccccc2)C(C)O)CCNC(=O)[C@H](C(C)O)NC(=O)[C@H](CCN)NC(=O)[C@H](CCN)NC1=O (stereo partly drawn) [Example 28] (ξβ3hPhg-[Thr(3ξ)][Dab][Dab][Dab][dF]L[Dab][Dab][Thr(3ξ)]; lactam 3-C)

Reply |
0.125
0.125
0.5
